# measurement description: yeast display, Sf9 membrane polyspecificity reagent, FACS + sequencing; frameworks hold sequencing errors
recorded endpoint: polyreactivity (PSR sort gate)

residue_string=QVQLVESGGGLDQARGSLRLSCAASGSTFKRKPLGWYRQATGKERELVAAITQSGGSTYYADSVKGRFTISRDNAKNTVYLLMYSLKPEDTSVYYCAASYLRGRRYEYWGQGTQVTVSS recorded_endpoint="polyreactivity (PSR sort gate)" result="high polyreactivity"
residue_string=QVQLVESGGGLVQAGGSLRLSCAASGFTIRYYAMGWYRQAPGKERELVAAIRFSGGSTYYADSVKGRFTISRDNAKNTVYLQMNSLKPEDTAVYYCNARRRYGLDLGTFGYWGQGTQVTVSS recorded_endpoint="polyreactivity (PSR sort gate)" result="high polyreactivity"
residue_string=QVQLVESGGGLVQAGGSLRLSCAASGFIFRSNAMGWYRQAPGKEREFVAAISSRGGSTTYADSVKGRFTISRDNAKNTVYLQMNSLKPEDTAVYYCARSLRRFVVAYDYWGQGTQVTVSS recorded_endpoint="polyreactivity (PSR sort gate)" result="high polyreactivity"
residue_string=QVQLVESGGGLVQAGGSLRLSCAASGFTLGFNARGWYRQAPGKERELVAAITIGGTTYYADSVKGRFTISRDNAKNTVYLQMNSLKPEDTAVYYCAAARFLWFYVYTTRVQRYGYWGQGTQVTVSS recorded_endpoint="polyreactivity (PSR sort gate)" result="low polyreactivity"
residue_string=QVQLVESGGGLVQAGGSLRLSCAASGRTFLTNAMGWYRQAPGKERELVAAISSGASTNYADSVKGRFTISRDNAKNTVYLQMNSLKPEDTAVYYCAAQLTDYQSKTLSYDYWGQGTQVTVSS recorded_endpoint="polyreactivity (PSR sort gate)" result="low polyreactivity"
residue_string=QVQLVESGGGLVQAGGSLRLSCAASGSTFDRYAMGGYIQAPGKERELVAAISWSGGSTYYADSVKGRFTISRDNAKNTVYFQMNSLKPEDTAVYYCASPYYYLHNQRYWGYDYWGQGTQVTVSS recorded_endpoint="polyreactivity (PSR sort gate)" result="high polyreactivity"
residue_string=QVQLVESGGGLVQAGGSLRLSCAASGIIFDEYAMGWYIQAPGKERELVAAITRDGGTNYADSVKGRFTISRDNAKNTVYLQMNSLKPEDTAVYYCAKRAYFYYGRYDYWGQGTQVTVSS recorded_endpoint="polyreactivity (PSR sort gate)" result="low polyreactivity"
residue_string=QVQLVESGGGLVQAGGSLRLSCAASGLTFAFYAMGWYRQAPGKEREFVARIRTSAITYYADSVKGRFTISRDNAKTTVYLQMNSLKPEDTAVYYCAVSWNKLRDSSLYAYYYWGQGTQVTVSS recorded_endpoint="polyreactivity (PSR sort gate)" result="high polyreactivity"
residue_string=QVQLVESGGGLVQAGGSLRLSCAASGRIFAYYAMGWYRQAPGKERELVAAISRSGVSTYYADSVKGRFTISRDNAKNTVYLQMNSLKPEDTAVYYCDARWRSGFTSVDYWGQGTQVTVSS recorded_endpoint="polyreactivity (PSR sort gate)" result="low polyreactivity"
residue_string=QVQLVESGGGLVQAGGSLRFSCAASGGTFSGYAMGWYRQAPGKERELVAAITSGGGTTYADSVKGRFTISRDNAKNTVYLQMNSLKPEDTAVYYCAKEGHVVIFYIGQYELDYWGQGTQVTVSS recorded_endpoint="polyreactivity (PSR sort gate)" result="low polyreactivity"

Exercise: // Input: `QVWLQESGRGLLQACGSLRLSCAASGTISRDIFMGWYRQAPGKEREFVATIAQGGITNYADSVKGRFTISRDNAKNTVYLQMNSVKPGDTAVYFCAARDGNCYWFYYWGQGTQVTVSS` . Output its polyreactivity (PSR sort gate) only.
Key: high polyreactivity

###

# measurement description: yeast display, Sf9 membrane polyspecificity reagent, FACS + sequencing; frameworks hold sequencing errors
recorded endpoint: polyreactivity (PSR sort gate)

As a guide, the following entries are already answered.
residue_string=QVQLVESGGGLVQAGGSLRLSCAASGITFAFYDKGWYRQPPGKERELVAAISYSGGGTYYADSVKGRFTISRDNAKNNVYLQMNSLKPEDTAVYYCAADPKTHPLFGEDYWGQGTQVTVSS result="low polyreactivity"
residue_string=QVQLVESGGGLVQAGGSLRLSCAASGFTLRKYVMGWYRQAPGKERELVAAITSSASSTYYADTVKGRFTISRDNAKNTVYLQMNSMKPEDTAVYYCAARGRPYRGSYYWGQGTQVTVSS result="high polyreactivity"
residue_string=QVQLVESGGGLVQAGGSLRLSCAASGSTFVVNAMGWYRQAPGKERELVAAITQDGDGTYYADSVKGRFTISRDNAKNTVYLQMNSLKPEDTAVYYCAAYPFYGPYDEFDYWGQGTQVTVSS result="low polyreactivity"
residue_string=QVQLVESGGGLVQAGGSLRLSCAASGRTFGRYVMGWYIQAPGKERELVARISSAGGTNYADSVKGRFTISRDNAKNTVYLQMNSLKPEDTAVYYCNFTRYWRAHLGYYWGQGTQVTVSS result="high polyreactivity"
residue_string=QVQLVESGGGLVQAGGSLRLSCAASGFIFWYYAMGWYRPAPGQERELVAAIRRGGSTNYADSVKGRFTISRDNAKNTVYLQMNSLKPEDTAVYYCAADVPRDTFDSWGQGTQVTVSS result="low polyreactivity"

Exercise: Answer with the recorded polyreactivity (PSR sort gate) of `QVQLVESGGCLVQAGGSLRLSCAASGFIFWDYAMGWYRQAPGKERELVAAISDSGGDKYYADSVKGRFTISRDNAKNTVYLQMNSLKPEDTAVYYCAADVELWVFRGQQYDYWGQGTQVTVSS` only.
Key: low polyreactivity

Exercise: Entry `QVQLVESGGGLVQAGGSLRLSCAASGLIFPGYAMGWYRQAPGKERELVAAISWSGGTTYYADSVKGRFTISRDNAKNTVYLQMNSLKPEDTAVYYCNAVYLQGYDYWGQGTQVTVSS` needs its polyreactivity (PSR sort gate) filled in; supply it.
Key: low polyreactivity

Exercise: Specify polyreactivity (PSR sort gate) for `QVQLVESGGGLVQAGGSLRLTCAASGSTFADYAMGWYRQAPGKERELVAAITGDGGNTYYADSVKGRFTISRDNAKNTVYLQMNSLKPEDTAVYYCAAEHETGAYYYWGLGTQVTVSS` and stop.
Key: high polyreactivity

###

# measurement description: yeast display, Sf9 membrane polyspecificity reagent, FACS + sequencing; frameworks hold sequencing errors
recorded endpoint: polyreactivity (PSR sort gate)

residue_string=QDQLVESGGGLVQAGGSLRLSCAASGRTFPRNAMGWYRQAPGKERELVAAISSTGDSTYYADSVKGRFTISRDNAKNTVYLQMNSLKPEDTAVYYCHYPYDYWGQGTQVTVSS result="low polyreactivity"
residue_string=QVQLVESGGGLVQAGGSLRLSCAASGFIFQPYAMGWSRQAPGKERELVAAITSRGGRTYYADSVKGRFTISRDNAKNTVYLQMNSLKPEDTAVYYCNADIYASEYYYWGQGTQLTVSS result="low polyreactivity"
residue_string=QVQLVESGGCLLQAGGSLRLSCAASGYIFERNAMGWYRQAPGKERELVAAITDDGDDTYYADSVKGRFTISRDNEKNTVYLQMNSLKPEDTAVYYCAKDLYYGDYYYWGQGTQVTVSS result="low polyreactivity"
residue_string=QVQLQESGAALVQAGGSLRLSCAASGNIFVDAYMGWYRQAPGKERELVATIAPADSVKGRFTISRDNAKNTVYLQMNRLKPEDTAVYYCAAFTGYSSVFGFWGQGIQVTVSS result="high polyreactivity"

Exercise: Return polyreactivity (PSR sort gate) (reported value) for this sequence: `QVQLVESGGGLVQAGGSLRLSCAASGITLTVYTMGWYRQAPGKERKLVAAITYGGTSTYYADSVKGRFTISRDNAKNTVYLQMNSLKPEDTAVYYCAARARIYNYWGQGTQVTVSS`
Key: high polyreactivity

Exercise: Name the recorded polyreactivity (PSR sort gate) of the item `QVQLVESGGGLVQAGGSLRLSCAASGSTLGYYAMGWYRQAPGKERELVAAISWRTDSTYYADSVKGRFTISRDNAKNTVYLQMNSLKPEDTAVYYCAAQGAYDTYYAQTYGYWGQGTQVTVSS` in your answer.
Key: low polyreactivity

Exercise: Input `QVQLVESGGGLVQAGGSLRLSGDASGSTFIYNAMGWYRQAPGKERELVAAIDWSGGDTYYADSVKGRFTISRDKAKNTVYLLMNSLKPEDTAVYYCAAVKRGGFYWGQGTQVTVSS` , output reported polyreactivity (PSR sort gate).
Key: high polyreactivity

Exercise: // Input: `QVQLVESGGGLVQAGGSLRLSCAASGFIFVGNDMGWYRQAPGKERELVAAISSGGSTYYADSVKGRFTISRDNAKNTVYLQMNSLKPEDTAVYYCAATYVYYLYGYWGQGTQVTVSS` . Output its polyreactivity (PSR sort gate) only.
Key: low polyreactivity

Exercise: // Input: `QVQLVESGGGLVQAGGSLRLSCAASGNTFLRYAMGWYRQAPGKERELVAAISTSGDSTYYADSVKGRFTISRDNAKNTVYLQMNSLKPEDTAVYYCAAAWYIHTIAYGCWGQGTQVTVSS` . Output its polyreactivity (PSR sort gate) only.
Key: high polyreactivity

Exercise: Return polyreactivity (PSR sort gate) for the following sequence: `QVQLVESGGGLVQAGGSLRLSCAASGFTYKYYAMGWYRQAPGKERELVAAIRRSAGSTNYADSVKGRFTISRDNAKNTVYLQMNSLKPEDTAVYYCNTVGTRQPMDYWGQGTQVTVSS`
Key: high polyreactivity

Exercise: Check the records and state polyreactivity (PSR sort gate) for `QVQLVESGGGLVQAGGSLRLSCAASGRIFNLYAMGWYRQAPGKERELVAAIRGRGTSTYYADSVKGRFTISRDNAKNTVYLQMNSLKPEDTAVYYCATTSRELGELRIFDYWGQGTQVTVSS`
Key: low polyreactivity
